- assayMethodText: Tanguay_ZF_120hpf_JAW_legacy: (Legacy) Oregon State University Tanguay Lab 120 Hour Post-fertilization zebrafish Assay for Jaw Malformation (AID 2283638)
Results filed as inconclusive are left out. Activity calls are given as the source filed them. Rule for the calls: active = hit-call score of the fitted dose curve at least 0.9, where 1 is the maximum; inconclusive = response in the unintended direction; inactive = score below 0.9.
The categories you may choose from are active, inactive

| molecule | labelValue |
| --- | --- |
| CCc1cnc(C2=NC(C)(C(C)C)C(=O)N2)c(C(=O)O)c1 (stereo not drawn) | inactive |
| Nc1c(Cl)cc([N+](=O)[O-])cc1Cl | active |
| CN(C)NC(=O)CCC(=O)O | inactive |
| CNC(=O)ON=C(SC)C(=O)N(C)C | inactive |
| CC(C1CC1)C(O)(Cn1cncn1)c1ccc(Cl)cc1 (stereo not drawn) | active |
| CCOP(=S)(OCC)SCCSCC | inactive |
| CCC(=NOC/C=C/Cl)C1=C(O)CC(C2CCOCC2)CC1=O (stereo not drawn) | inactive |
| C=C(C)[C@H]1Cc2c(ccc3c2O[C@@H]2COc4cc(OC)c(OC)cc4[C@@H]2C3=O)O1 | inactive |
| COc1cc(OC)nc(Sc2cccc(Cl)c2C(=O)O)n1 | inactive |
| CC1(C(=O)Nc2ccc(O)c(Cl)c2Cl)CCCCC1 | inactive |

Task: // outcome(item) with item = CCOC(=O)CC(SP(=O)(OC)OC)C(=O)OCC (stereo not drawn)
Result: inactive

Task: // outcome(item) with item = COP(=O)(NC(C)=O)SC (stereo not drawn)
Result: inactive

Task: // outcome(item) with item = "CSC1=N[C@@](C)(c2ccccc2)C(=O)N1Nc1ccccc1"
Result: inactive

====

- Read-out: Pselectin, SELP (gene 6403)
- assayMethodText: BSK_4H_Pselectin: BioMAP Diversity Plus: 4H Assay for Pselectin Biomarker Activity (AID 2283026)
- protocolConditions: primary human endothelial cells (HUVEC); actives raise or lower the signal
- Method: BSK_4H is a cell-based, multiplexed-readout assay that uses umbilical vein endothelium, a human vascular primary cell, with measurements taken at 24 hours after chemical dosing in a 96-well plate.BSK_4H_Pselectin is an assay component measured in the BSK_4H assay. It measures P-Selectin antibody related to regulation of gene expression using ELISA technology.Data from the assay component BSK_4H_Pselectin was analyzed into 1 assay endpoint. […]
Active and inactive are the calls of the source. How the source made its calls: active means hit-call score of the fitted dose curve at least 0.9, where 1 is the maximum; inactive means score below 0.9.
The categories you may choose from are True = active, False = inactive

Solved entries (count: 8):
| compound | labelValue |
| --- | --- |
| CCOP(=S)(Oc1cnc(C(C)(C)C)nc1)OC(C)C (stereo not drawn) | True |
| O=c1ccc(=O)[nH][nH]1 | False |
| CCNc1nc(Cl)nc(NC(C)(C)C#N)n1 | False |
| COP(=O)(NC(C)=O)SC (stereo not drawn) | False |
| CC[C@H](C)[C@H]1O[C@]2(C=C[C@@H]1C)C[C@@H]1C[C@@H](C/C=C(\C)[C@@H](O[C@H]3C[C@H](OC)[C@@H](O[C@H]4C[C@H](OC)[C@@H](NC)[C@H](C)O4)[C@H](C)O3)[C@@H](C)/C=C/C=C3\CO[C@@H]4[C@H](O)C(C)=C[C@@H](C(=O)O1)[C@]34O)O2 | True |
| CCCSP(=O)(OCC)Oc1ccc(Br)cc1Cl (stereo not drawn) | True |
| CC(C)=CC1C(C(=O)OCN2C(=O)C3=C(CCCC3)C2=O)C1(C)C (stereo not drawn) | True |
| CCc1cnc(C2=NC(C)(C(C)C)C(=O)N2)c(C(=O)O)c1 (stereo not drawn) | False |

Task: // outcome(item) with item = "CCCSP(=O)(OCC)SCCC"
Result: False

Task: // outcome(item) with item = "CNc1cnn(-c2cccc(C(F)(F)F)c2)c(=O)c1Cl"
Result: False

Task: // outcome(item) with item = "CNC(=O)ON=C(SC)C(=O)N(C)C"
Result: False

Task: // outcome(item) with item = "COc1cccc(C(=O)NN(C(=O)c2cc(C)cc(C)c2)C(C)(C)C)c1C"
Result: False
